- System: A204
- PROTOCOL DETAILS: relative viability vs DMSO control (72 h) (fraction); higher = more viable cells
- CONDITION PARAMETERS: 10 µM
# relative viability annotations
OBSERVATION TYPE: relative viability

>>> readout_number("C[C@H]1Oc2cc(cnc2N)-c2c(nn(C)c2C#N)CN(C)C(=O)c2ccc(F)cc21 [Lorlatinib]")
0.988
>>> readout_number("Cc1c(F)cc(C(=O)NC2CC2)cc1-c1ccc(C(=O)NCC(C)(C)C)cn1 [Losmapimod]")
0.901
>>> readout_number("COc1cc2nccc(Oc3ccc(NC(=O)C4(C(=O)Nc5ccc(F)cc5)CC4)cc3)c2cc1OC [Cabozantinib]")
0.229
>>> readout_number("Cc1ccc(NC(=O)c2ccc(CN3CCN(C)CC3)cc2)cc1Nc1nccc(-c2cccnc2)n1 [Imatinib]")
0.196
>>> readout_number("CO[C@@H]1[C@H](N(C)C(=O)c2ccccc2)C[C@H]2O[C@]1(C)n1c3ccccc3c3c4c(c5c6ccccc6n2c5c31)C(=O)NC4 [Midostaurin]")
0.157
>>> readout_number("C#Cc1cccc(Nc2ncnc3cc(OCCOC)c(OCCOC)cc23)c1 [Erlotinib]")
0.546
>>> readout_number("CNC(=O)c1cc(Oc2ccc(NC(=O)Nc3ccc(Cl)c(C(F)(F)F)c3)cc2)ccn1 [Sorafenib]")
0.157
>>> readout_number("FC(F)(F)c1ccc(CNc2ccc(Cc3c[nH]c4ncc(Cl)cc34)cn2)cn1 [Pexidartinib]")
0.393
